measurement protocol: LD50 of A10 in BALB/c mice
measurement context: mouse, in vivo, ip
Protocol: All animals wee observed for 7 to 14 days after the last dose was administered. The LD50 was calculated from a plot of % mortality versus dose (log M) using a four parameter logistic equation.
measurement kind: LD50 (mg/kg)
Expressed in mg/kg, but write only the number.

Query: What value of LD50 has been reported for the following compound? Cc1oncc1C(=O)Nc1ccc(C(F)(F)F)cc1
Reply: 94

====

measurement protocol: Effects of A10 on mortality (mice implanted with C6 cells)
Assay type: in vivo, mouse
measurement context: mouse, in vivo, ip; 30 mg/kg/day (PBTE), 48 treatments, n 4
measurement kind: mortality (%)
Expressed in %, but write only the number.

Query: What value of mortality has been reported for the following compound? Cc1oncc1C(=O)Nc1ccc(C(F)(F)F)cc1
Reply: 50

====

Tested on: SF767
measurement protocol: Tumor cell line growth
Format: cell-based
measurement context: SF767; PDGF-R expression -; read-out: SRB
measurement kind: IC50 (µM)
Expressed in µM, but write only the number.

Query: What is its IC50 for SF767? Entry: Cc1oncc1C(=O)Nc1ccc(C(F)(F)F)cc1 [Compound A10]
Reply: 100

====

In this section we review reported IC50 values for a set of compounds.
target desc: FLK-1 (Mus musculus, UniProt P35918)
Construct: expressed in transfected cells; host or cells: NIH3T3 mouse fibroblasts, retroviral vector
Sequence (P35918 20-1345): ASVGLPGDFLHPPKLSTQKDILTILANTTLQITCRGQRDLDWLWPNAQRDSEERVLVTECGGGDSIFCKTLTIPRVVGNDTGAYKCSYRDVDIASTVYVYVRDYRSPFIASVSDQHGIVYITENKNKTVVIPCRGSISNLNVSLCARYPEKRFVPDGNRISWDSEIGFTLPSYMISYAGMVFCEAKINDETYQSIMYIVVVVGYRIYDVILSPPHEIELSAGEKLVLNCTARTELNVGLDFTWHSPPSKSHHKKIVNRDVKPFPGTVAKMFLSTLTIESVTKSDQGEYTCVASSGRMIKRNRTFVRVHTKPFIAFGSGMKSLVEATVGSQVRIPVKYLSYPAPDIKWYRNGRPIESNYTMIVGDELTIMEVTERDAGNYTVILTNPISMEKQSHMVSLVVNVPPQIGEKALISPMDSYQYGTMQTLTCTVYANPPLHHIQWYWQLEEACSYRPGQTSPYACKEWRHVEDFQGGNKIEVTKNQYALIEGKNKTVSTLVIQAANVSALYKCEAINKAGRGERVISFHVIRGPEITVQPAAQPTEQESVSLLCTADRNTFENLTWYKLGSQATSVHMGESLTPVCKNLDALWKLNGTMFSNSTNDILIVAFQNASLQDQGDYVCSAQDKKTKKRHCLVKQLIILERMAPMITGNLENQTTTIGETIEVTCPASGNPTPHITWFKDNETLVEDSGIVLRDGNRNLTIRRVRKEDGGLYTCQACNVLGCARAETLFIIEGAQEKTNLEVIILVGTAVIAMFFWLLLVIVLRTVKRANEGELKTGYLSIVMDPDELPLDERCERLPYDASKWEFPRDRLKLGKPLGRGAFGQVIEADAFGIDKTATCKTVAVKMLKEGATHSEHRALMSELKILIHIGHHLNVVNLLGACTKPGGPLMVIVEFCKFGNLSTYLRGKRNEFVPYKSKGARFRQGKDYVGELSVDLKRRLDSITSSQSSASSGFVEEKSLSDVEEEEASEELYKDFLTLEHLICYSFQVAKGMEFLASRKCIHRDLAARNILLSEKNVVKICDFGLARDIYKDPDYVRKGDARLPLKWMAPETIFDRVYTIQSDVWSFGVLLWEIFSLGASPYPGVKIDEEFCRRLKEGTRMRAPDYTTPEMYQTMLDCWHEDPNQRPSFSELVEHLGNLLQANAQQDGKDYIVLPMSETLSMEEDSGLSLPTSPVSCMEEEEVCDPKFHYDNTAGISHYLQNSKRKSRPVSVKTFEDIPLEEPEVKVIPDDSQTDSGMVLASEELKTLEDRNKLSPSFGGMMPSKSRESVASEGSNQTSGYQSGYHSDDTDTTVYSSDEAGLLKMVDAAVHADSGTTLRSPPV
measurement protocol: Receptor tyrosine kinase inhibition, FLK-1
Type: cell-based
measurement context: W = done in Western assay; read-out: FLK-1 IC50 (W)

[[record]]
smiles = "COc1cc2ncc(-c3ccccc3)nc2cc1OC"
target_desc = "FLK-1 (Mus musculus, UniProt P35918)"
assay_value = "> 30 µM"


Now let's try a different one.
Query: What value of IC50 has been reported for the following compound? Cc1cc2ncc(-c3ccccc3)nc2cc1C
Reply: > 10 µM

====

System: U118MG
measurement protocol: Tumor cell line growth
Assay type: cell-based
measurement context: Homo sapiens, U-118-MG, 96 h; glioma, 4 days
measurement kind: IC50 (µM)
Expressed in µM, but write only the number.

Query: What value of IC50 has been reported for the following molecule? Cc1oncc1C(=O)Nc1ccc(C(F)(F)F)cc1
Reply: 150

====

measurement protocol: C6 glioma SC xenograft in mice
Assay type: in vivo
measurement context: rat, in vivo, ip, 15 mg/kg
Procedure: Cell lines were grown in appropriate medium (see Appendix 1). Cells were harvested at or near confluency with 0.05% Trypsin-EDTA and pelleted at 450×g for 10 min. […] Tumor growth was measured over 3 to 6 weeks using venier calipers. Tumor volumes were calculated as a product of length×width×height unless otherwise indicated. P values were calculated using the Students' t-test. […]
In this section we review reported mortality at 336 h values for a set of compounds.
Expressed in %, but write only the number.

Below are worked cases with known answers.
[[record]]
smiles = "O=C(NN=Cc1ccc(O)c(O)c1)C(=O)Nc1cccc([N+](=O)[O-])c1"
measurement_kind = "mortality at 336 h"
unit_info = "%"
assay_value = 0

[[record]]
smiles = "Cc1cc2ncc(-c3ccccc3)nc2cc1C"
measurement_kind = "mortality at 336 h"
unit_info = "%"
assay_value = 0


Query: What value of mortality at 336 h has been reported for the following compound? COc1cc2ncc(-c3ccccc3)nc2cc1OC
Reply: 0

====

measurement protocol: C6 glioma SC xenograft in mice
Type: in vivo
measurement context: rat, in vivo, ip; 30 mg/kg, at d17
Description: Cell lines were grown in appropriate medium (see Appendix 1). Cells were harvested at or near confluency with 0.05% Trypsin-EDTA and pelleted at 450×g for 10 min. […] Tumor growth was measured over 3 to 6 weeks using venier calipers. Tumor volumes were calculated as a product of length×width×height unless otherwise indicated. P values were calculated using the Students' t-test. […]
measurement kind: mortality at 408 h (%)
Expressed in %, but write only the number.

Query: What value of mortality at 408 h has been reported for the following compound? CC1c2nc3ccccc3c(=O)n2C(c2ccc(O)c(O)c2)N1Cc1ccccc1 (stereo not shown) [Compound H10]
Reply: 14.3

====

In this section we review reported pIC50 values for a set of compounds.
target desc: PDGFR (Homo sapiens, UniProt P09619)
Sequence (P09619 33-1106): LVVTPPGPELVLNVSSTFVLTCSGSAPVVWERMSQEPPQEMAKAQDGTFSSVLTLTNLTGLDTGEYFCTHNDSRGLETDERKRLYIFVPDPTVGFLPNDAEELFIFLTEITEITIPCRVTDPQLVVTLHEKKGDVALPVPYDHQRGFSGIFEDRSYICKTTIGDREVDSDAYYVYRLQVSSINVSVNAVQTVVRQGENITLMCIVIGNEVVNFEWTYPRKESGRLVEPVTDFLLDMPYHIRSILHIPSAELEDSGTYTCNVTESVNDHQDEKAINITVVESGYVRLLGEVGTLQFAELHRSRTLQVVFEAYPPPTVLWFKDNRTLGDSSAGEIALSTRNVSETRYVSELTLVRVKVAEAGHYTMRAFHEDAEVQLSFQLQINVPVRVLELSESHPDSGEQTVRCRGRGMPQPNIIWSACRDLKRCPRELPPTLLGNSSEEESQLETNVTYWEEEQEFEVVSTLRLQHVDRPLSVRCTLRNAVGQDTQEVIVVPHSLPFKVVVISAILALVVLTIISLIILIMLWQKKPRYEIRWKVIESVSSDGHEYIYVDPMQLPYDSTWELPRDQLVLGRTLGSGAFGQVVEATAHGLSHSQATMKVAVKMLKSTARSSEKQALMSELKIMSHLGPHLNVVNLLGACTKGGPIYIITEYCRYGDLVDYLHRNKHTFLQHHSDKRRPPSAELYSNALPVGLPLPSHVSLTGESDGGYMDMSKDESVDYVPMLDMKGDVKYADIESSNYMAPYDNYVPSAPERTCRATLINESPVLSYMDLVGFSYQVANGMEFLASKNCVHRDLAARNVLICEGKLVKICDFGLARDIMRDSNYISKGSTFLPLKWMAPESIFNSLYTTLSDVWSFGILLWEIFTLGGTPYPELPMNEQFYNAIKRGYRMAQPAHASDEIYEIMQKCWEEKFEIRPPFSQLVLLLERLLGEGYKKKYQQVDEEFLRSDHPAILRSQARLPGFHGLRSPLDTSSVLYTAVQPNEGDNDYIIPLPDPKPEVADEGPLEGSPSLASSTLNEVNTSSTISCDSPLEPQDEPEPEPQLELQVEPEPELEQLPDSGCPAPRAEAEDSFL
measurement protocol: PDGF-stimulated receptor phosphorylation in U1242 cells, ELISA
Assay type: cell-based
Set-up: U1242 (PDGF-β receptor); host or cells: U1242 MG glioma cells
measurement context: 100 ng/ml PDGF-BB; read-out: ELISA P-TYR U1242 IC50
Keep in mind that pIC50 stands for -log10 of concentration in molar terms.

Below are worked cases with known answers.
[[record]]
smiles = "N#CC(=Cc1c[nH]c2ccccc12)C(N)=S"
assay_value = 5.10

[[record]]
smiles = "Cc1ccc2ncc(-c3ccccc3)nc2c1"
assay_value = 4.05

[[record]]
smiles = "N#CC(=Cc1c[nH]c2ccccc12)c1[nH]nc(N)c1C#N"
assay_value = 4.70

[[record]]
smiles = "COc1cc2ncc(-c3ccccc3)nc2cc1OC"
assay_value = 6.10

[[record]]
smiles = "CN(C)CCCn1cc(C=C(C#N)C(=O)c2ccc(O)c(O)c2)c2ccccc21"
assay_value = 4.30


Query: What value of pIC50 has been reported for the following compound? c1ccc(-c2cnc3ccccc3n2)cc1
Reply: 5.00

Query: What value of pIC50 has been reported for the following compound? CN(C)CCCn1cc(C=C(C#N)c2[nH]nc(N)c2C#N)c2ccccc21
Reply: 4.70

Query: What value of pIC50 has been reported for the following compound? O=c1c2ccccc2nc2n1CCOC2=Cc1cccc(O)c1
Reply: 4.15

Query: What value of pIC50 has been reported for the following compound? O=C(NN=Cc1ccc(O)c(O)c1)C(=O)Nc1cccc([N+](=O)[O-])c1
Reply: 5.30

====

In this section we review reported IC50 values for a set of molecules.
target desc: EGFR (Homo sapiens, UniProt P00533)
Construct: expressed in transfected cells; host or cells: NIH3T3 mouse fibroblasts, retroviral vector
Sequence (P00533 25-1210): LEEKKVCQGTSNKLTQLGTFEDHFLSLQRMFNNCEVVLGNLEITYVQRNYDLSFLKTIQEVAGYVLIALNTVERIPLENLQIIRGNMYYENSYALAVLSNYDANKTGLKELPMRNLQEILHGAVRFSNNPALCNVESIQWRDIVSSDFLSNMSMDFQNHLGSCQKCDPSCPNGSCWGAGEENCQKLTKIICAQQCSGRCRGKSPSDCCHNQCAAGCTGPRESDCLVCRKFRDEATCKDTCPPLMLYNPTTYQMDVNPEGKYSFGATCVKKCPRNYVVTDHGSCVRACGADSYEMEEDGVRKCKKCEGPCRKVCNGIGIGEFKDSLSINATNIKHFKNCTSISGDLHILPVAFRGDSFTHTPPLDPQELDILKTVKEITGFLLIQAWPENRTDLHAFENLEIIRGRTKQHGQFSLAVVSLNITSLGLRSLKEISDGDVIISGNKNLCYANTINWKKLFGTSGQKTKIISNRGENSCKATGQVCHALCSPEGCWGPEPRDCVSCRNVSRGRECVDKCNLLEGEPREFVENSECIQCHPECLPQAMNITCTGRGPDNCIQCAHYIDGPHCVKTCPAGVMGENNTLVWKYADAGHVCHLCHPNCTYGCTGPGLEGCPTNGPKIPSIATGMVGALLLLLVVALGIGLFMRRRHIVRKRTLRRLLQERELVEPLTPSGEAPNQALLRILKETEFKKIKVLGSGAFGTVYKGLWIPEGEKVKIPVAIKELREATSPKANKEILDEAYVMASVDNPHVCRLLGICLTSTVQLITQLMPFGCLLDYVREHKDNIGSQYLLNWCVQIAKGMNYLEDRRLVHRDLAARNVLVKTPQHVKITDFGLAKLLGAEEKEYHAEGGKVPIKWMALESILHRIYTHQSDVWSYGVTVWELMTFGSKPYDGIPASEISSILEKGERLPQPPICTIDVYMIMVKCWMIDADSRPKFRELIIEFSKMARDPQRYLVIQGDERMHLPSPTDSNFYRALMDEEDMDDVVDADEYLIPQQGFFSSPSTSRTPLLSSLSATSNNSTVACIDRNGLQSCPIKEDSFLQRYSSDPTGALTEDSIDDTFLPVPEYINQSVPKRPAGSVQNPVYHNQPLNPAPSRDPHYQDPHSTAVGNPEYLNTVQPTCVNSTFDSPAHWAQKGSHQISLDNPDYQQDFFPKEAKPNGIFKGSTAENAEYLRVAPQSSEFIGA
measurement protocol: Receptor tyrosine kinase inhibition, EGFR
Type: cell-based
measurement context: read-out: EGFR ID50

Below are worked cases with known answers.
[[record]]
smiles = "CC(C)(C)c1cc(C=C(C#N)c2[nH]nc(N)c2C#N)cc(C(C)(C)C)c1O"
target_desc = "EGFR (Homo sapiens, UniProt P00533)"
assay_value = "16 µM"

[[record]]
smiles = "Cc1cc2ncc(Nc3cccc(I)c3)nc2cc1C"
target_desc = "EGFR (Homo sapiens, UniProt P00533)"
assay_value = "< 0.8 µM"

[[record]]
smiles = "O=[N+]([O-])c1ccc2ncc(-c3ccccc3)nc2c1"
target_desc = "EGFR (Homo sapiens, UniProt P00533)"
assay_value = "> 100 µM"


Query: What is its IC50 for EGFR (Homo sapiens, UniProt P00533)? Entry: N#CC(=Cc1c[nH]c2ccccc12)c1[nH]nc(N)c1C#N
Reply: > 100 µM

Query: What is its IC50 for EGFR (Homo sapiens, UniProt P00533)? Entry: Cc1cc2ncc(-c3ccc([N+](=O)[O-])cc3)nc2cc1C
Reply: > 100 µM

====

target desc: FLK-1 (Mus musculus)
Construct: expressed in transfected cells; host or cells: NIH3T3 mouse fibroblasts, retroviral vector
measurement protocol: Receptor tyrosine kinase inhibition, FLK-1
Assay type: cell-based
measurement context: read-out: FLK-1 IC50
In this section we review reported IC50 values for a set of molecules.

Below are worked cases with known answers.
[[record]]
molecule = "N#CC(=Cc1c[nH]c2ccccc12)c1[nH]nc(N)c1C#N [Compound D14]"
target_desc = "FLK-1 (Mus musculus)"
assay_value = "> 50 µM"

[[record]]
molecule = "N#CC(=Cc1c[nH]c2ccccc12)C(N)=O [Compound D13]"
target_desc = "FLK-1 (Mus musculus)"
assay_value = "> 50 µM"

[[record]]
molecule = "O=[N+]([O-])c1ccc2ncc(-c3ccccc3)nc2c1 [Compound G23]"
target_desc = "FLK-1 (Mus musculus)"
assay_value = "325 µM"

[[record]]
molecule = "Cc1cc2ncc(-c3ccc([N+](=O)[O-])cc3)nc2cc1C [Compound G27]"
target_desc = "FLK-1 (Mus musculus)"
assay_value = "> 50 µM"

[[record]]
molecule = "CC1c2nc3ccccc3c(=O)n2C(c2ccc(O)c(O)c2)N1Cc1ccccc1 (stereo not shown) [Compound H10]"
target_desc = "FLK-1 (Mus musculus)"
assay_value = "> 50 µM"

[[record]]
molecule = "COc1cc2ncnc(Nc3ccccc3)c2cc1OC [Compound P14]"
target_desc = "FLK-1 (Mus musculus)"
assay_value = "> 200 µM"


Query: What value of IC50 has been reported for the following molecule? Cc1cc2ncc(Nc3cccc(I)c3)nc2cc1C [Compound G29]
Reply: 10 µM

Query: What value of IC50 has been reported for the following molecule? O=c1c2ccccc2nc(C=Cc2ccc(O)c(O)c2)n1CCO [Compound F10]
Reply: > 50 µM

Query: What value of IC50 has been reported for the following molecule? Cc1cc2nc(-c3ccccc3)c(-c3ccc(O)c(O)c3)nc2cc1C [Compound G24]
Reply: 9.3 µM

Query: What value of IC50 has been reported for the following molecule? COCCCN1C(=O)SC(=Cc2ccccc2Cl)C1=O [Compound P15]
Reply: > 50 µM

Query: What value of IC50 has been reported for the following molecule? N#CC(=Cc1c[nH]c2ccccc12)c1c(C#N)c(N)nn1-c1ccccc1 [Compound D20]
Reply: > 50 µM

Query: What value of IC50 has been reported for the following molecule? N#CC(=Cc1cc(O)c(O)c(Br)c1)C(=O)NCCCNC(=O)C(C#N)=Cc1cc(O)c(O)c(Br)c1 [Compound P10]
Reply: > 25 µM

Query: What value of IC50 has been reported for the following molecule? c1ccc(-c2cnc3ccccc3n2)cc1 [Compound G10]
Reply: > 50 µM
